# tested.system: JAK2 (Homo sapiens)
# Construct: made in house; host or cells: SF9 insect cells (baculovirus)
# experiment.summary: JAK2 inhibition (Table 4)
# Type: biochemical
# measurement.context: read-out: JAK2 Ki
pKi: −log10 of the molar value.
observation.type: pKi

• CS(=O)(=O)CC(=O)N1CCC[C@@H](n2cnc3cnc4[nH]ccc4c32)C1 [Example 79] = 7.65
• O=S(=O)(Cc1ccccc1)N1CC[C@@H](n2cnc3cnc4[nH]ccc4c32)C1 [Example 435] = 7.55

A = N#CCC(=O)N1CCC(n2cnc3cnc4[nH]ccc4c32)CC1 [Example 33]
B = CC(C)(C)OC(=O)N1CCC(n2c(C#N)nc3cnc4[nH]ccc4c32)CC1 [Example 169]
C = OC1CCN(Cc2nc3cnc4[nH]ccc4c3n2C2CCN(CC(F)F)CC2)CC1 [Example 705]
Exercise: Put these in order: smallest pKi first, largest last. Dear reader, please state the labels in the requested order.
Key: C, B, A
(C: 6.47, B: 6.73, A: 7.46)

----------
# tested.system: JAK2 (Homo sapiens, UniProt O60674)
# Construct: made in house; host or cells: SF9 insect cells (baculovirus)
# Sequence (O60674 812-1132): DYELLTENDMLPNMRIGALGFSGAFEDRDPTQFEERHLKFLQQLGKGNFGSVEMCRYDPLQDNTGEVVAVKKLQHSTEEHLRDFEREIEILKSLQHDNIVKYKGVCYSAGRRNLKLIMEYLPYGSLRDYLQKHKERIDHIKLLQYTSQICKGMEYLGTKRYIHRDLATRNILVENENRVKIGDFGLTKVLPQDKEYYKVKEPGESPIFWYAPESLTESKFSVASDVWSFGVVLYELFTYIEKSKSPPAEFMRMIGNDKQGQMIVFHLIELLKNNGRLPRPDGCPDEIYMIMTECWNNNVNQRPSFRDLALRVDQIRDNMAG
# experiment.summary: JAK2 inhibition (Table 4)
# Assay type: biochemical
# measurement.context: read-out: JAK2 Ki
pKi: −log10 of the molar value.
observation.type: pKi

- CC(O)c1nc2cnc3[nH]ccc3c2n1C1CCN(CC(=O)N2CCCCC2)CC1 (racemic): 6.55

I = Cc1nc2cnc3[nH]ccc3c2n1C1CCCCNC1 (racemic)
II = C[C@@H](O)c1nc2cnc3[nH]ccc3c2n1C1CCN(Cc2ccn(C)n2)CC1
III = O=c1ccn(Cc2nc3cnc4[nH]ccc4c3n2C2CCOCC2)c(=O)[nH]1
Exercise: Put these in order: smallest pKi first, largest last. Dear reader, please state the labels in the requested order.
Key: III, II, I
(III: 6.25, II: 6.46, I: 6.68)

----------
# tested.system: JAK1 (Homo sapiens)
# Construct: made in house; host or cells: SF9 insect cells (baculovirus)
# Sequence (P23458 852-1154): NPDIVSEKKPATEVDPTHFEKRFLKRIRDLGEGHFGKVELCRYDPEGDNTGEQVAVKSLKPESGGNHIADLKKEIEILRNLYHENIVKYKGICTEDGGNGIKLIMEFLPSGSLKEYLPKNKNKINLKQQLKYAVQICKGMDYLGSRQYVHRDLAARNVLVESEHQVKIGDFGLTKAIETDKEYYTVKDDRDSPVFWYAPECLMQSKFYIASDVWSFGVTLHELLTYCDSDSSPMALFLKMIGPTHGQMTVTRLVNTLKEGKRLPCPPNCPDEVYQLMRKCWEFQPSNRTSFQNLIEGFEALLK
# experiment.summary: JAK1 inhibition (Table 4)
# Assay type: biochemical
# measurement.context: read-out: JAK1 Ki
observation.type: Ki (nM)

The cases that follow already have their Ki on record.
- CC(O)c1nc2cnc3[nH]ccc3c2n1C1CCN(Cc2cccnc2)CC1 (racemic): 2.92
- CCN1CCC(n2c(CCNS(C)(=O)=O)nc3cnc4[nH]ccc4c32)C(F)(F)C1 (racemic) [Example 804]: 2.97
- CCN1CCC(n2c(C)nc3cnc4[nH]ccc4c32)C(F)(F)C1 (racemic): 1.77
- O=CN1CCC(n2cnc3cnc4[nH]ccc4c32)C(F)(F)C1 (stereo not drawn): 5.55
- CN(CC(F)F)C(=O)NC1CCC(n2cnc3cnc4[nH]ccc4c32)CC1 (stereo not drawn): 4.22

I = c1cc2c(ncc3ncn(C4CCN(Cc5cocn5)CC4)c32)[nH]1
II = C[C@@H](O)c1nc2cnc3[nH]ccc3c2n1[C@@H]1CCCOC1
III = C[C@@H](O)c1nc2cnc3[nH]ccc3c2n1[C@@H]1CCCN(C(=O)C2CC2)C1
IV = CNc1nc2cnc3[nH]ccc3c2n1C1CCN(S(C)(=O)=O)CC1
V = CC(F)CN1CCC(n2c([C@@H](C)O)nc3cnc4[nH]ccc4c32)CC1 (stereo partly drawn)
Exercise: Put these in order: smallest Ki first, largest last. Dear reader, please state the labels in the requested order.
Key: V, I, IV, II, III
(V: 3.1 nM, I: 6.81 nM, IV: 40.7 nM, II: 70.1 nM, III: 116 nM)

A = O=S(=O)(C1CCCC1)N1CCC(n2cnc3cnc4[nH]ccc4c32)CC1
B = COC1CN(CCC#N)CCC1n1c(C)nc2cnc3[nH]ccc3c21 (racemic)
Exercise: Hey, between A and B which has a smaller measured Ki? Reply with the label of the item you choose.
Key: B

a = FC(F)(F)CNC1CCC(n2cnc3cnc4[nH]ccc4c32)C1 (racemic)
b = N#CCCN1CCC(n2c(CCC3CCCO3)nc3cnc4[nH]ccc4c32)CC1 (racemic)
c = OC1(C2CC2)CCC(n2cnc3cnc4[nH]ccc4c32)CC1 (stereo not drawn) [Example 996]
d = OCc1nc2cnc3[nH]ccc3c2n1C1CCCCC1
Exercise: Put these in order: smallest Ki first, largest last. Dear reader, please state the labels in the requested order.
Key: d, c, a, b
(d: 1.21 nM, c: 2.01 nM, a: 6.11 nM, b: 10.3 nM)

A = CC(=O)N1CCN(C(=O)Cc2nc3cnc4[nH]ccc4c3n2C2CCCOC2)CC1 (racemic)
B = c1ccc(CN2CCC(n3c(Cn4cccn4)nc4cnc5[nH]ccc5c43)CC2)cc1
Exercise: Which numeric Ki is bigger, that of A or that of B ? Reply with the label of the item you choose.
Key: A

----------
# tested.system: JAK2 (Homo sapiens)
# Construct: made in house; host or cells: SF9 insect cells (baculovirus)
# experiment.summary: JAK2 inhibition (Table 4)
# Format: biochemical
# measurement.context: read-out: JAK2 Ki
pKi: −log10 of the molar value.
observation.type: pKi

* N#Cc1cccc(CN2CCC(n3cnc4cnc5[nH]ccc5c43)CC2)n1 [Example 304] | 8.45

I = CN1CCCC(C(=O)N2CCC(n3cnc4cnc5[nH]ccc5c43)CC2)C1 (single isomer, unassigned) [Example 454]
II = CC(O)c1nc2cnc3[nH]ccc3c2n1C1CCN(C(=O)N(C)C)CC1 (racemic) [Example 528]
III = N#CCCN1CCC(n2c(CC3CC3)nc3cnc4[nH]ccc4c32)CC1 [Example 383]
Exercise: Hey, quick one: sort these by pKi, largest value first please. Dear reader, please state the labels in the requested order.
Key: III, II, I
(III: 7.45, II: 6.40, I: 5.88)

----------
# tested.system: JAK3 (Homo sapiens)
# Construct: made in house; host or cells: SF9 insect cells (baculovirus)
# experiment.summary: JAK3 inhibition (Table 4)
# Type: biochemical
# measurement.context: read-out: JAK3 Ki
observation.type: Ki (nM)

The cases that follow already have their Ki on record.
- CCOC(=O)NCc1nc2cnc3[nH]ccc3c2n1C1CCN(CCC#N)CC1: 80.2
- N#Cc1nc2cnc3[nH]ccc3c2n1C1CCN(Cc2ccccc2)CC1: 28.1
- N#C[C@H]1CC[C@H](n2cnc3cnc4[nH]ccc4c32)CC1: 82.7
- N#CCCN1CCC(n2c(CCn3cncn3)nc3cnc4[nH]ccc4c32)CC1: 79.2

a = CN1CCC[C@H]1C(=O)N1CCC(n2cnc3cnc4[nH]ccc4c32)CC1
b = N#CCCN1CCC(n2c(CCNC(=O)c3ccccc3)nc3cnc4[nH]ccc4c32)CC1
c = N#CCN1CCC[C@H]1C(=O)N1CCC(n2cnc3cnc4[nH]ccc4c32)CC1
d = CC(C)(C)OC(=O)N[C@@H]1CC[C@@H](n2cnc3cnc4[nH]ccc4c32)C1
e = CS(=O)(=O)NCc1nc2cnc3[nH]ccc3c2n1[C@H]1CCCOC1
Exercise: Hey, quick one: sort these by Ki, largest value first please. Dear reader, please state the labels in the requested order.
Key: c, a, e, b, d

----------
# tested.system: JAK3 (Homo sapiens, UniProt P52333)
# Construct: made in house; host or cells: SF9 insect cells (baculovirus)
# Sequence (P52333 783-1124): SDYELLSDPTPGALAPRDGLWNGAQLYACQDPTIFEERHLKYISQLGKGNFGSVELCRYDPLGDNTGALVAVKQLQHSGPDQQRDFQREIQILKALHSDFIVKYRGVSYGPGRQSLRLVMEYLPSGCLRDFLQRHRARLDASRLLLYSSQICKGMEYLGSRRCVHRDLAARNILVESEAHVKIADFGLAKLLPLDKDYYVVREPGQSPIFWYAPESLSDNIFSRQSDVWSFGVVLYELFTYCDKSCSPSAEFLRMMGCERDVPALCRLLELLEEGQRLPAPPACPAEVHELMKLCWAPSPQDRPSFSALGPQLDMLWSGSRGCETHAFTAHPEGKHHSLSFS
# experiment.summary: JAK3 inhibition (Table 4)
# Type: biochemical
# measurement.context: read-out: JAK3 Ki
pKi: −log10 of the molar value.
observation.type: pKi

The cases that follow already have their pKi on record.
- CN([C@H]1CC[C@H](n2cnc3cnc4[nH]ccc4c32)CC1)S(=O)(=O)C1CC1: 6.77
- CS(=O)(=O)N[C@H]1CC[C@H](n2cnc3cnc4[nH]ccc4c32)CC1: 7.64

I = C[C@@H](O)c1nc2cnc3[nH]ccc3c2n1C1CCOCC1
II = OC1(C2CC2)CCC(n2cnc3cnc4[nH]ccc4c32)CC1 (stereo not drawn) [Example 996]
Exercise: Hey, between I and II which has a smaller measured pKi? Reply with the label of the item you choose.
Key: I
(I: 7.04, II: 7.29)

1 = C[C@@H](O)c1nc2cnc3[nH]ccc3c2n1C1CCC(CCS(C)(=O)=O)CC1 (stereo partly drawn)
2 = O=C1CC(n2cnc3cnc4[nH]ccc4c32)CCN1 (racemic)
Exercise: Hey, between 1 and 2 which has a smaller measured pKi? Reply with the label of the item you choose.
Key: 2
(2: 6.53, 1: 7.37)

----------
# tested.system: JAK3 (Homo sapiens, UniProt P52333)
# Construct: made in house; host or cells: SF9 insect cells (baculovirus)
# experiment.summary: JAK3 inhibition (Table 4)
# Type: biochemical
# measurement.context: read-out: JAK3 Ki
pKi: −log10 of the molar value.
observation.type: pKi

- CS(=O)(=O)N1[C@@H]2CC[C@H]1C[C@H](n1cnc3cnc4[nH]ccc4c31)C2: 7.53

A = NC1CC(n2cnc3cnc4[nH]ccc4c32)C1 (centres unmarked)
B = CNc1nc2cnc3[nH]ccc3c2n1C1CCN(CCC#N)CC1
C = c1cncc(CN[C@H]2CC[C@H](n3cnc4cnc5[nH]ccc5c43)CC2)c1
D = Cc1nc2cnc3[nH]ccc3c2n1[C@@H]1CC[C@@H](NC(C)CC#N)C1 (some centres unmarked)
E = COCCNC(=O)O[C@H]1CC[C@H](n2cnc3cnc4[nH]ccc4c32)CC1
Exercise: Hey, quick one: sort these by pKi, largest value first please. Dear reader, please state the labels in the requested order.
Key: B, D, E, C, A
(B: 7.72, D: 7.49, E: 7.01, C: 6.18, A: 5.93)
